- target_of_assay: Genome polyprotein (Dengue virus type 2 (strain 16681-PDK53)) (UniProt P29991)
- Sequence (P29991 whole entry, looked up): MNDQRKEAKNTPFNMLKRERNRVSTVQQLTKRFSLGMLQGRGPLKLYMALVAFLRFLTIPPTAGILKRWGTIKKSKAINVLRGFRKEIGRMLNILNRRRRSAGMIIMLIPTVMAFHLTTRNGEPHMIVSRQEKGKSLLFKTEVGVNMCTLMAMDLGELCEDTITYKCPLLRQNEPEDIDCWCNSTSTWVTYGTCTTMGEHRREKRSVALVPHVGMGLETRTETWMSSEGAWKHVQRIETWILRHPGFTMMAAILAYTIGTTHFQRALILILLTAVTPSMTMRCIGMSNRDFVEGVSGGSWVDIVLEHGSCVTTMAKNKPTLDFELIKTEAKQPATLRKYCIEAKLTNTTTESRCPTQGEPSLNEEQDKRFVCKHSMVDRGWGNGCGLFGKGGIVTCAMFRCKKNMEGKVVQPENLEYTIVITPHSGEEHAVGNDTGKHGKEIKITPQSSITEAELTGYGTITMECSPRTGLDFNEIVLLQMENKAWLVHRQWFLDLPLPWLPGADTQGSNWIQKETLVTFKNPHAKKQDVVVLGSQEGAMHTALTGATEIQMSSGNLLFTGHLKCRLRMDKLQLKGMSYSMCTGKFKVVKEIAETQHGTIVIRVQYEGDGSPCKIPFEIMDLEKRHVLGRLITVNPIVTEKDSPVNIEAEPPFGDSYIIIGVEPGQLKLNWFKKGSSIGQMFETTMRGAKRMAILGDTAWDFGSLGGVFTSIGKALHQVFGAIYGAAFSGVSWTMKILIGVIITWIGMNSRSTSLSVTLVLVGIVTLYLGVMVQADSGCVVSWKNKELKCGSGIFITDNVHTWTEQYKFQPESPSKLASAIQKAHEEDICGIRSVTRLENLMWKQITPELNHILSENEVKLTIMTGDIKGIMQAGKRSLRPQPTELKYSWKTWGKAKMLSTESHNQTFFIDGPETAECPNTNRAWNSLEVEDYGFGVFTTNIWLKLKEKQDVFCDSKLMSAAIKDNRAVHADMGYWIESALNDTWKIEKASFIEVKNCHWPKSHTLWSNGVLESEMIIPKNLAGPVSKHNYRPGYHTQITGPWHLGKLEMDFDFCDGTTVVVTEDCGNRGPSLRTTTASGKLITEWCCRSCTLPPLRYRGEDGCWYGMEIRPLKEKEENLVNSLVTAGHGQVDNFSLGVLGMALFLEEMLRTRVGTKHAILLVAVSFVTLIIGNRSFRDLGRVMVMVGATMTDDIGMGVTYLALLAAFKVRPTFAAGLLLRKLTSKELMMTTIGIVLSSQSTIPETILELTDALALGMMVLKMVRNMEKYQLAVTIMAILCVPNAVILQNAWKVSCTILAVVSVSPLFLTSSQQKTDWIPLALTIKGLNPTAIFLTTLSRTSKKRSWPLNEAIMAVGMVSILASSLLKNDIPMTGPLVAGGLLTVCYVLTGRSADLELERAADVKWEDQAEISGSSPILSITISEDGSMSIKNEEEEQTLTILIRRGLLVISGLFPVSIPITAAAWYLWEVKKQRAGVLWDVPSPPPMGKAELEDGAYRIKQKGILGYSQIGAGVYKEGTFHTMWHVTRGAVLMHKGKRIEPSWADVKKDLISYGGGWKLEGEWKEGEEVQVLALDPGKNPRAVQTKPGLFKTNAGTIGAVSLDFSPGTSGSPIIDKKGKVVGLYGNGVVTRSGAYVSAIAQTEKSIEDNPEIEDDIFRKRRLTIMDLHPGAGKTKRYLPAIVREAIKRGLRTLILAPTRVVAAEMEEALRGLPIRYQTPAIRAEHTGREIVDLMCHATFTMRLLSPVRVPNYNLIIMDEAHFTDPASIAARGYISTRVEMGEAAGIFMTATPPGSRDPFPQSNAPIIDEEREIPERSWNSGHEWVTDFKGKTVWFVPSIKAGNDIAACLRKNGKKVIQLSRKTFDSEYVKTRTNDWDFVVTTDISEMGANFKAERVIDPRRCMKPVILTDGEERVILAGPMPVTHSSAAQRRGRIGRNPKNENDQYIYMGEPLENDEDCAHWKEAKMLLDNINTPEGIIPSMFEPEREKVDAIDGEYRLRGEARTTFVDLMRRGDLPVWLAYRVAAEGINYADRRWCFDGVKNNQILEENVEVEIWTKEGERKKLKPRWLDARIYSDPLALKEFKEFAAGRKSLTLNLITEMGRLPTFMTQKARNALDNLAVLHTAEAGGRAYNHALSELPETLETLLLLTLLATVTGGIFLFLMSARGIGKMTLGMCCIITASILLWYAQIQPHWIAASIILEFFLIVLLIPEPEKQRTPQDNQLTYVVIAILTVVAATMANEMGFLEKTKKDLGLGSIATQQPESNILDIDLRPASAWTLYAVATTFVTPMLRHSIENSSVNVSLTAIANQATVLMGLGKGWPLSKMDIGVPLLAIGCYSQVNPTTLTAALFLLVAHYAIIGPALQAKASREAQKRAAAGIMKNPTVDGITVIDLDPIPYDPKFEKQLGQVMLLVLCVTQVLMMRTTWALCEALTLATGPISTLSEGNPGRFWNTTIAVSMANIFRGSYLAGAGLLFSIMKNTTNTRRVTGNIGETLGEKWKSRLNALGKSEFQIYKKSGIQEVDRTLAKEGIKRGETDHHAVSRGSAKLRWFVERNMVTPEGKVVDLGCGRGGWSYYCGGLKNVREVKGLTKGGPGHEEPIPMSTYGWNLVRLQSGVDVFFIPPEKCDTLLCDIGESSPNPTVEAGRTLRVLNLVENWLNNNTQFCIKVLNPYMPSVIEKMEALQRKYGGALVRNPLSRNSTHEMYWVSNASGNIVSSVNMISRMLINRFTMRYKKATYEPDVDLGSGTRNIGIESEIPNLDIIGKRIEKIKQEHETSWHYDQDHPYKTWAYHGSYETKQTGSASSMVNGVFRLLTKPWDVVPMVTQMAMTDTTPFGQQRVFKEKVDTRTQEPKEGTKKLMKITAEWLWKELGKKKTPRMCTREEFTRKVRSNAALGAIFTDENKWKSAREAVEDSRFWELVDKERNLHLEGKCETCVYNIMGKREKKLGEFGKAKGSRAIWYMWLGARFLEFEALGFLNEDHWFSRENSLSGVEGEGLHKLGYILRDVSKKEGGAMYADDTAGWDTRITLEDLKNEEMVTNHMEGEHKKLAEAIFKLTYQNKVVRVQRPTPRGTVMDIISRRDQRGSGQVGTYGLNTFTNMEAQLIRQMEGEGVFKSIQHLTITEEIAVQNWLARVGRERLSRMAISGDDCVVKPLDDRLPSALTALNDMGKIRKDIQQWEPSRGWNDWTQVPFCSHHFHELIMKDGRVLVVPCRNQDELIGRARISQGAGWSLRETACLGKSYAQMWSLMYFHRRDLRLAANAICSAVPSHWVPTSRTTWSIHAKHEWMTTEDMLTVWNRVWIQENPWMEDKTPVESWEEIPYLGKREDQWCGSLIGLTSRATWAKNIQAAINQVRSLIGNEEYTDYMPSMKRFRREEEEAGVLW
- measurement_protocol: flavivirus cap methylation enzyme inhibition – biochemical, confirmation dose response, primary screen (AID 588689)
- protocol_conditions: Dengue-2 NS5 methyltransferase capping enzyme assay
For each of the compounds below, state its pIC50.
One number for each entry, as −log10 of the molar value.

CCCCC1(C)OC(=O)C(=Cc2ccc(-c3ccc(Cl)c(C(=O)O)c3)o2)C(=O)O1 (configuration not stated)    4.86

Now consider the entry below.
Request: pIC50, test system Genome polyprotein (Dengue virus type 2 (strain 16681-PDK53)) (UniProt P29991), entry C=Cc1c(C)c2cc3[nH]c(cc4nc(cc5nc(cc1[nH]2)C(C)=C5CCC(=O)O)C(CCC(=O)O)=C4C)c(C)c3C=C 4.46
